The measured values listed here are drawn from PubChem BioAssay (NCI).

- Test protocol: NCI Yeast Anticancer Drug Screen. Data for the rad50EPP+ strain (AID 151);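 note: 0% = growth of vehicle-treated control cultures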
- Measurement parameters: S. cerevisiae rad50 mutant strain, at 1.2 µM, active compounds read high
This is part of a sample that, as a whole, favours compounds with a hit. Of some 79,000 tested, about 15% had one in any assay.
Measured endpoint: growth inhibition (%)
Give bare numbers, in %.

Example results:
                                   molecule  u  reported_value
0        [O-][n+]1c2ccc(O)cc2nc2ccc(Br)cc21  %               6
1  CN(N=O)N1C(=O)SCC(c2ccccc2)(c2ccccc2)C1=O  %              -4
2     Cc1ccc(NC(=O)/C(Cl)=C(\Cl)C(=O)O)cc1C  %               6
3                       Oc1cccc2c(Cl)ccnc12  %              83
4  O=C1C(Nc2ccccc2)=C(Oc2ccccc2)C(=O)c2ccccc21  %               5

Would you mind giving growth inhibition for every molecule in the list below?
1. COc1ccc(OC)c2cc3ccccc3cc12
2. Cc1ccc(Cl)c2[nH]c(-c3ccccc3)cc(=O)c12
3. CSC(=S)Nc1cccc(C)n1
4. Nc1ccc2c(c1)C(=O)c1cccc(N)c1C2=O
5. O=S(=O)(CCCl)c1ccccc1Cl
6. COc1cc(C2SCC(=O)N2c2nnc(C(F)(F)F)s2)cc(OC)c1OC (stereo not drawn)

1. -13
2. 1
3. -15
4. 9
5. -7
6. -4

# batch: return growth inhibition for each of the 3 molecules below
1. c1ccc2c(c1)c1ncccc1c1nccnc21
2. Cc1ccc2[nH]c3c(C)c4cc[n+](C)cc4c(C)c3c2c1
3. O=C(NNc1ccnc2cc(Cl)ccc12)/C(=C\c1ccccc1Cl)NC(=O)c1ccccc1

[15, 35, 17]

---

- Test protocol: NCI Yeast Anticancer Drug Screen. Data for the wt1 strain (AID 149);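 note: 0% = growth of vehicle-treated wt1 cultures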
- Measurement parameters: S. cerevisiae wt1 strain (SPY 50644) growth inhibition; at 1.2 µM; active compounds read high
This is part of a sample that, as a whole, favours compounds with a hit. Of some 79,000 tested, about 15% had one in any assay. Activity calls are given as the source filed them. Rule as the data show it: active = growth inhibition above about 70%; inactive = the rest.
Field: growth inhibition. Provide a value for each of the molecules that follow.

                                   molecule   reported_value
0  CC[C@@]1(O)C(=O)OCc2c1cc1n(c2=O)Cc2cc3c(CN(C)C)c(O)ccc3nc2-1   -1% (inactive)
1  CCN(CC)CC[n+]1ccc2c(C)c3[nH]c4ccc(O)cc4c3c(C)c2c1    0% (inactive)
2  C[CH2][Sn]([CH2]C)([O]C(=O)C(OC(C)=O)c1ccccc1)[O]C(=O)C(OC(C)=O)c1ccccc1 (configuration not stated)    0% (inactive)
3  Nc1nc(-c2cccnc2)cc(-c2cc(-c3cccnc3)nc(N)n2)n1    0% (inactive)
4          NC(N)=N/N=C\c1c2ccccc2cc2ccccc12  -38% (inactive)

Report growth inhibition for each item below.
1. O=C(c1ccc(Cl)cc1Cl)C(Cl)Cl
2. CCCCCCc1cc(C(=O)OC/C(C)=N/NC(N)=O)c2ccccc2n1
3. CN(C)c1ccc(Sc2ccc3nc(N)nc(N)c3c2)cc1
4. Nc1ncncc1C(C1=C(O)COC1=O)C1=C(O)COC1=O
5. CCCCCCCCCCNC(=O)OCC
6. COc1ccc(Br)c(C(=O)Sc2nnnn2-c2cccc(Cl)c2)c1
7. OCC1OC(OCC(O)C(O)C(O)C(/C=N/Nc2ccccc2)=N/Nc2ccccc2)C(O)C(O)C1O (configuration not stated)
8. COc1ccc(/C(C)=N/OC(=O)c2c(-c3ccccc3Cl)noc2C)cc1CN1CCOCC1

1: -1% (inactive); 2: -2% (inactive); 3: 15% (inactive); 4: 1% (inactive); 5: -3% (inactive); 6: 5% (inactive); 7: 4% (inactive); 8: -7% (inactive)

Can you give me growth inhibition for all of these, one by one?
1. O=C(N=Nc1ccccc1Cl)NNc1ccccc1Cl
2. O=C1NC(=O)C2C3C=CC(C3)C12 (configuration not stated)
3. COc1ccc(OC)c2cc3ccccc3cc12
4. CCCCN1C(=O)N(c2ccc(OCC)cc2)C2N(CCCC)C1C(C)(C)C2(C)C (configuration not stated)
5. Cc1ccc2[nH]c3c(C)c4cc[n+](C)cc4c(C)c3c2c1
6. O=C1CSC(/C=C/c2ccccc2)N1c1ccc(-c2ccc(-n3c(-c4ccccc4)nc4ccccc4c3=O)cc2)cc1 (configuration not stated)
7. CCCCc1cc(O)ccc1O
8. C[C@@H]1C[C@H]2[C@@H]3CCC4=CC(=O)C=C[C@]4(C)[C@@]3(Cl)[C@@H](Cl)C[C@]2(C)[C@@]1(O)C(=O)COP(=O)(O)O

1: 4% (inactive); 2: -5% (inactive); 3: -19% (inactive); 4: -3% (inactive); 5: -6% (inactive); 6: -2% (inactive); 7: -2% (inactive); 8: 1% (inactive)

// growth inhibition value for CC(C)/C(Cl)=N\OC(=O)Nc1ccc(F)cc1 : 2% (inactive)
